src = ChEMBL document CHEMBL3137667

- Assay comment: Highest frequency of moderate liver toxicity observed during clinical trials, expressed as a percentage. [column '% BIOL' in source]
- Assay context: human
Quantity: Hepatotoxicity (moderate) (%)
Numbers only here, please. The scale is %.

Use the examples below as a reference point.
[
  {
    "Molecule": "CC(=O)N[C@@H](CS)C(=O)O",
    "Hepatotoxicity (moderate) (%)": 0
  },
  {
    "Molecule": "Nc1cc(-c2ccncc2)c[nH]c1=O",
    "Hepatotoxicity (moderate) (%)": 33
  }
]

q: // returns reported Hepatotoxicity (moderate) for input CC(=O)[C@H]1CC[C@H]2[C@@H]3CC[C@H]4C[C@H](O)CC[C@]4(C)[C@H]3C(=O)C[C@]12C.C[C@]12CC[C@@H](O)C[C@@H]1CC[C@H]1[C@@H]3CC[C@H](C(=O)CO)[C@@]3(C)CC(=O)[C@@H]12
a: 15

q: // returns reported Hepatotoxicity (moderate) for input CCCCN1CCCCC1C(=O)Nc1c(C)cccc1C (centres undefined)
a: 0

----------
- Assay comment: Highest frequency of moderate liver toxicity observed during clinical trials, expressed as a percentage. [column '% BIOL' in source]
- Assay context: human
Property: Hepatotoxicity (moderate); scope: individual compounds
Numbers only here, please. The scale is %.

Use the examples below as a reference point.
[
  {
    "Compound": "CO[C@H]1Cc2c(O)cc(O)cc2O[C@@H]1c1ccc(O)c(O)c1",
    "Units": "%",
    "Reported value": 34.8
  },
  {
    "Compound": "C[C@H]1CC(=O)C[C@@H]2CC[C@H]3[C@@H]4CC[C@H](O)[C@@]4(C)CC[C@@H]3[C@]21C",
    "Units": "%",
    "Reported value": 0
  },
  {
    "Compound": "OCC(Br)(Br)Br",
    "Units": "%",
    "Reported value": 0
  },
  {
    "Compound": "O=C(O)c1cccs1",
    "Units": "%",
    "Reported value": 0
  },
  {
    "Compound": "C#CC(O)(/C=C/Cl)CC (centres undefined)",
    "Units": "%",
    "Reported value": 0
  },
  {
    "Compound": "CCc1nn(CCCN2CCN(c3cccc(Cl)c3)CC2)c(=O)n1CCOc1ccccc1",
    "Units": "%",
    "Reported value": 0
  },
  {
    "Compound": "OCc1cc(C(O)CNCCCCCCOCCCCc2ccccc2)ccc1O (centres undefined)",
    "Units": "%",
    "Reported value": 1.8
  },
  {
    "Compound": "O=c1cc(Cc2ccccc2)[nH]c(=S)[nH]1",
    "Units": "%",
    "Reported value": 0
  }
]

q: // returns reported Hepatotoxicity (moderate) for input Cc1c(Cl)cccc1Nc1ccccc1C(=O)O
a: 0

q: // returns reported Hepatotoxicity (moderate) for input CC(/C=N/NC(=N)N)=N\NC(=N)N
a: 18.2

q: // returns reported Hepatotoxicity (moderate) for input CCOc1ccc(NC(C)=O)cc1
a: 0

q: // returns reported Hepatotoxicity (moderate) for input CCn1nc(C(=O)O)c(=O)c2cc3c(cc21)OCO3
a: 1

q: // returns reported Hepatotoxicity (moderate) for input C=CC1=C(C(=O)O)N2C(=O)[C@@H](NC(=O)/C(=N\OCC(=O)O)c3csc(N)n3)[C@H]2SC1
a: 33.3

q: // returns reported Hepatotoxicity (moderate) for input CCOC(=O)OC(C)OC(=O)[C@@H]1N2C(=O)[C@@H](NC(=O)[C@H](N)c3ccccc3)[C@H]2SC1(C)C (some centres undefined)
a: 0
